# Test system: LOX IMVI melanoma
# EXPERIMENT: NCI-60 one-dose screen, 48 h
# MEASUREMENT SETUP: 10 µM unless noted
The panel holds about 83,000 compounds, 20% with a hit somewhere; the sample as a whole holds those more often. Activity calls are given as the source filed them. The calls were made as follows: active = growth percent below 10; inactive = the rest.
Respond with a class label; see active, inactive

Reference set, count: 3
Q. For this compound, state the assay outcome: "NS(=O)(=O)c1ccc(C(=O)NN2C(=O)c3ccccc3C2=O)cc1"
A. inactive

Q. For this compound, state the assay outcome: "CC(C)(C)c1ccc(C(=O)N/N=C/c2ccc(O)cc2O)cc1"
A. active

Q. For this compound, state the assay outcome: "COC(=O)c1sccc1-c1cc(O)c(C(=O)Nc2ccccc2)s1"
A. inactive

Others:
Q. For this compound, state the assay outcome: "Cc1ccc(O)c(NC(=O)c2cccc(Nc3ccnc(C(F)(F)F)c3)c2)c1"
A. inactive

Q. For this compound, state the assay outcome: "CCn1cc(Cc2cc(C(=O)Nc3cc4cc(OC)c(OC)cc4c(C)n3)ccc2Cl)cn1"
A. active

---

# Tested on: A549/ATCC NSCLC
# EXPERIMENT: NCI-60 one-dose screen, 48 h (100 = growth as untreated, 0 = no growth, -100 = all killed)
# MEASUREMENT SETUP: 10 µM unless noted
This is part of a sample that, as a whole, favours compounds with a hit. Of some 83,000 tested, about 20% had one in any assay.
PROPERTY NAME: growth (%)
Numbers only, in %.

Example entries begin here.
Q. # return recorded growth for input Cc1oc(-c2ccc(Cl)cc2)nc1C1=NN(C(=O)c2ccncc2)C(c2ccccc2)C1 (centres undefined)
A. 87.7

Q. # return recorded growth for input "C=C(C)[C@@H]1CC[C@]2(C(=O)Nc3ccccn3)CC[C@]3(C)[C@H](CC[C@@H]4[C@@]5(C)CCCNC(C)(C)[C@@H]5CC[C@]43C)[C@@H]12"
A. 23.1

Q. # return recorded growth for input "O=C(C1=Cc2cc3ccccc3n2Cc2cnnn21)c1ccc(F)cc1"
A. 96.3

Lab note: next compound to report on.
Q. # return recorded growth for input "O=C(Oc1ccc2c(c1)sc1nc(-c3ccccc3)[nH]c(=O)c12)C(F)(F)F"
A. 28.3

---

# System: SN12C renal
# EXPERIMENT: NCI-60 one-dose screen, 48 h (100 = growth as untreated, 0 = no growth, -100 = all killed)
# MEASUREMENT SETUP: 10 µM unless noted
The panel holds about 83,000 compounds, 20% with a hit somewhere; the sample as a whole holds those more often.
For each record, write down the corresponding growth.
Numbers only, in %.

Example entries begin here.
Q. # return recorded growth for input "Cn1c(C#N)ccc1-c1ccc(F)c(NC(=O)c2ccc(F)cc2)c1"
A. 82.2

Q. # return recorded growth for input "CN(C)c1ccc(CNCCO)cc1"
A. 99.9

Q. # return recorded growth for input "COc1ccc2[nH]cc(-c3nonc3-c3c[nH]c4ccc(Br)cc34)c2c1"
A. 67.7

Q. # return recorded growth for input "CCOC(=O)NC(=S)n1oc(=O)c2ccccc21"
A. 102

Q. # return recorded growth for input O=C1C=CC2(O)OC/C(=C\c3ccccc3)C(O)=C2C1=O (stereo not given)
A. -30.7

Q. # return recorded growth for input "CCCCCc1ccc(S(=O)(=O)Nc2cc(-c3csc(NC(C)=O)n3)ccc2N2CCN(C)CC2)cc1"
A. 61.4

Working through the 5 compounds below one at a time, give growth for each.
1. CN(C)/C(N)=N/N=C(\c1ccccc1)c1ccccn1
2. CCn1cc(C(=O)N/N=C/c2cccc(F)c2)c(=O)c2cc(F)c(N3CCNC(C)C3)c(F)c21 (stereo not given)
3. CC12OC(CC(O)C1O)n1c3ccccc3c3c4c(c5c6ccccc6n2c5c31)C(=O)N(CCN1CCCC1)C4=O (stereo not given)
4. O=C1c2cccnc2C(=O)c2c1c(C(=O)OCCc1ccccn1)c1ccccn21
5. COC12C=C/C(=C(/C(=O)OCCSc3ccnn3C)C(=O)CCCCCCCCC3(OC)C=C/C(=C(/C(=O)OCCSc4ccnn4C)C(=O)CCCCCCCC1)O3)O2

A.
99.4
-4.46
14.9
-33.4
-4.94

Working through the 3 compounds below one at a time, give growth for each.
1. Nc1nc2ccccc2c2c(=O)c3cc(Cl)ccc3sc12
2. COC(=O)[C@@]1(C)CC[C@]2(C)CC[C@]3(C)C4=CC=C5C(=CC(=O)C(O)=C5C)[C@]4(C)[C@@H](O)C[C@@]3(C)[C@@H]2C1
3. Oc1c(I)cc(I)cc1CN(Cc1ccccn1)Cc1ccccn1

A.
1: 94.9; 2: 9.92; 3: 27.3

Working through the 5 compounds below one at a time, give growth for each.
1. COc1ccc(-c2nc3ccc(C)cc3c3c2c(=O)n(C)c(=O)n3C)cc1OC
2. Cc1ccc(O)c(NC(=O)c2cccc(Nc3ccnc(C(F)(F)F)c3)c2)c1
3. COc1ccc(Nc2ncc(C#N)c(NCCCNC(=O)C3CCC3)n2)cc1
4. Cc1cccc(NC(=O)N/C(N)=N/c2nc3ccccc3s2)c1
5. C[C@H]1[C@H](C)CC[C@]2(C(=O)NCCNCCN)CC[C@]3(C)C(=CC[C@@H]4[C@@]5(C)CCC(=O)C(C)(C)[C@@H]5CC[C@]43C)[C@H]12

A.
[98, 39.9, 35.3, 43.9, 68.2]

Q. # return recorded growth for input "c1csc(-c2cn3nc(-c4c[nH]c5ccccc45)sc3n2)c1"
A. 34.2
